The measured values listed here are drawn from the supplement of paper PMC10627819.

system: B. subtilis 168; test: Bliss interaction score (quartile over a dose matrix) (fitness difference); higher = more antagonism (negative = synergy)
Listed here are compounds together with their documented Bliss interaction score.
Reply with just the number.

// worked examples, Bliss interaction score included
compound="CO/N=C(\\C(=O)N[C@@H]1C(=O)N2C(C(=O)[O-])=C(C[N+]3(C)CCCC3)CS[C@H]12)c1csc(N)n1 [Cefepime] + CCC[C@@H]1C[C@@H](C(=O)N[C@@H]([C@H]2O[C@H](SC)[C@H](O)[C@@H](O)[C@H]2O)[C@@H](C)O)N(C)C1 [Lincomycin]" readout_type="Bliss interaction score" numeric_value=-0.0344
compound="CO/N=C(\\C(=O)N[C@@H]1C(=O)N2C(C(=O)[O-])=C(C[N+]3(C)CCCC3)CS[C@H]12)c1csc(N)n1 [Cefepime] + CCC[C@@H]1C[C@@H](C(=O)N[C@@H]([C@H]2O[C@H](SC)[C@H](O)[C@@H](O)[C@H]2O)[C@H](C)Cl)N(C)C1 [Clindamycin]" readout_type="Bliss interaction score" numeric_value=0.0651
compound="CC1(C)S[C@@H]2[C@H](NC(=O)[C@H](N)c3ccc(O)cc3)C(=O)N2[C@H]1C(=O)O [Amoxicillin] + CC[C@H]1OC(=O)[C@H](C)[C@@H](O[C@H]2C[C@@](C)(OC)[C@@H](O)[C@H](C)O2)[C@H](C)[C@@H](O[C@@H]2O[C@H](C)C[C@H](N(C)C)[C@H]2O)[C@](C)(O)C[C@@H](C)CN(C)[C@H](C)[C@@H](O)[C@]1(C)O [Azithromycin]" readout_type="Bliss interaction score" numeric_value=-0.0431

We now examine a further compound.
Ask: Answer with the recorded Bliss interaction score for the compound listed here: C[C@H]1COc2c(N3CCN(C)CC3)c(F)cc3c(=O)c(C(=O)O)cn1c23 [Levofloxacin] + CCN(CC)CCOC(=O)c1ccc(N)cc1 [Procaine]
Result: -0.0156

---

test system: S. pneumoniae D39V; experiment: Bliss interaction score (quartile over a dose matrix) (fitness difference); higher = more antagonism (negative = synergy)
readout_type: Bliss interaction score

// worked examples, Bliss interaction score included
molecule="CCCCCCCCCC(=O)N[C@@H](Cc1c[nH]c2ccccc12)C(=O)N[C@H](CC(N)=O)C(=O)N[C@@H](CC(=O)O)C(=O)N[C@@H]1C(=O)NCC(=O)N[C@@H](CCCN)C(=O)N[C@@H](CC(=O)O)C(=O)N[C@H](C)C(=O)N[C@@H](CC(=O)O)C(=O)NCC(=O)N[C@H](CO)C(=O)N[C@@H]([C@H](C)CC(=O)O)C(=O)N[C@@H](CC(=O)c2ccccc2N)C(=O)O[C@@H]1C [Daptomycin] + C[C@@H](O)[C@H]1C(=O)N2C(C(=O)O)=C(SCCNC=N)C[C@H]12 [Imipenem]" result=0.0763
molecule="CCN(CC)CCOC(=O)c1ccc(N)cc1 [Procaine] + CN[C@@H]1[C@H](O[C@H]2[C@H](O[C@H]3[C@H](O)[C@@H](O)[C@H](N=C(N)N)[C@@H](O)[C@@H]3N=C(N)N)O[C@@H](C)[C@]2(O)C=O)O[C@@H](CO)[C@H](O)[C@H]1O [Streptomycin]" result=0.0529
molecule="CO/N=C(\\C(=O)N[C@@H]1C(=O)N2C(C(=O)[O-])=C(C[N+]3(C)CCCC3)CS[C@H]12)c1csc(N)n1 [Cefepime] + CO/N=C(\\C(=O)N[C@@H]1C(=O)N2C(C(=O)O)=C(COC(N)=O)CS[C@H]12)c1ccco1 [Cefuroxime]" result=-0.0435
molecule="CC1(C)S[C@@H]2[C@H](NC(=O)[C@H](N)c3ccc(O)cc3)C(=O)N2[C@H]1C(=O)O [Amoxicillin] + CN(C)[C@@H]1C(O)=C(C(N)=O)C(=O)[C@@]2(O)C(O)=C3C(=O)c4c(O)ccc(Cl)c4[C@@](C)(O)[C@H]3C[C@@H]12 [Clortetracycline]" result=0.168
molecule="CCN(CC)CCOC(=O)c1ccc(N)cc1 [Procaine] + COc1cc(Cc2cnc(N)nc2N)cc(OC)c1OC [Trimethoprim]" result=0.0954

Ask: Answer with the recorded Bliss interaction score for the molecule listed here: CO/N=C(\C(=O)N[C@@H]1C(=O)N2C(C(=O)[O-])=C(C[N+]3(C)CCCC3)CS[C@H]12)c1csc(N)n1 [Cefepime] + CC1=C\[C@@H](O)CC(=O)Cc2nc(co2)C(=O)N2CCC=C2C(=O)O[C@H](C(C)C)[C@H](C)/C=C/C(=O)NC\C=C\1 [Virginiamycin M1]
Result: 0.0257

Ask: Answer with the recorded Bliss interaction score for the molecule listed here: CC1(C)S[C@@H]2[C@H](NC(=O)[C@H](N)c3ccc(O)cc3)C(=O)N2[C@H]1C(=O)O [Amoxicillin] + C[C@H]1c2cccc(O)c2C(=O)C2=C(O)[C@]3(O)C(=O)C(C(N)=O)=C(O)[C@@H](N(C)C)[C@@H]3[C@@H](O)[C@@H]21 [Doxycycline]
Result: 0.151

---

tested on: S. aureus DSM 20231; assay: fitness (endpoint OD595 vs no drug) (fraction); higher = more growth; conditions: first compound 0.0625 µg/mL; partner 0.25 µg/mL
Listed here are compounds together with their documented fitness.
Reply with just the number.

// worked examples, fitness included
compound="CC1(C)S[C@@H]2[C@H](NC(=O)[C@H](N)c3ccc(O)cc3)C(=O)N2[C@H]1C(=O)O [Amoxicillin] + COc1cc(Cc2cnc(N)nc2N)cc(OC)c1OC [Trimethoprim]" numeric_value=0.401
compound="CC1(C)S[C@@H]2[C@H](NC(=O)[C@H](N)c3ccc(O)cc3)C(=O)N2[C@H]1C(=O)O [Amoxicillin] + CC1=C\\[C@@H](O)CC(=O)Cc2nc(co2)C(=O)N2CCC=C2C(=O)O[C@H](C(C)C)[C@H](C)/C=C/C(=O)NC\\C=C\\1 [Virginiamycin M1]" numeric_value=0.504
compound="CC1(C)S[C@@H]2[C@H](NC(=O)[C@H](N)c3ccc(O)cc3)C(=O)N2[C@H]1C(=O)O [Amoxicillin] + CO/N=C(\\C(=O)N[C@@H]1C(=O)N2C(C(=O)[O-])=C(C[N+]3(C)CCCC3)CS[C@H]12)c1csc(N)n1 [Cefepime]" numeric_value=0.553

We now examine a further compound.
Ask: Answer with the recorded fitness for the compound listed here: Cn1nnc(-c2ccc(-c3ccc(N4C[C@H](CO)OC4=O)cc3F)cn2)n1 [Tedizolid] + CC1=C\[C@@H](O)CC(=O)Cc2nc(co2)C(=O)N2CCC=C2C(=O)O[C@H](C(C)C)[C@H](C)/C=C/C(=O)NC\C=C\1 [Virginiamycin M1]
Result: 0.888

---

test system: S. aureus DSM 20231; experiment: Bliss interaction score (quartile over a dose matrix) (fitness difference); higher = more antagonism (negative = synergy)
Listed here are molecules together with their documented Bliss interaction score.
Reply with just the number.

// worked examples, Bliss interaction score included
molecule="CC1(C)S[C@@H]2[C@H](NC(=O)[C@H](N)c3ccc(O)cc3)C(=O)N2[C@H]1C(=O)O [Amoxicillin] + Cc1onc(-c2ccccc2)c1C(=O)N[C@@H]1C(=O)N2[C@@H]1SC(C)(C)[C@@H]2C(=O)O [Oxacillin]" subject_of_test="S. aureus DSM 20231" numeric_value=0.104
molecule="CO/N=C(\\C(=O)N[C@@H]1C(=O)N2C(C(=O)[O-])=C(C[N+]3(C)CCCC3)CS[C@H]12)c1csc(N)n1 [Cefepime] + CC[C@H]1OC(=O)[C@H](C)[C@@H](O[C@H]2C[C@@](C)(OC)[C@@H](O)[C@H](C)O2)[C@H](C)[C@@H](O[C@@H]2O[C@H](C)C[C@H](N(C)C)[C@H]2O)[C@](C)(O)C[C@@H](C)C(=O)[C@H](C)[C@@H](O)[C@]1(C)O [Erythromycin]" subject_of_test="S. aureus DSM 20231" numeric_value=0.0701
molecule="CN(C)C(=O)C(CCN1CCC(O)(c2ccc(Cl)cc2)CC1)(c1ccccc1)c1ccccc1 [Loperamide] + O=c1c(O)c(-c2ccc(O)c(O)c2)oc2cc(O)cc(O)c12 [Quercetin]" subject_of_test="S. aureus DSM 20231" numeric_value=0.242

We now examine a further molecule.
Ask: Answer with the recorded Bliss interaction score for the molecule listed here: CN(C)C(=O)C(CCN1CCC(O)(c2ccc(Cl)cc2)CC1)(c1ccccc1)c1ccccc1 [Loperamide] + Cc1ncc([N+](=O)[O-])n1CCO [Metronidazole]
Result: 0.0627

---

system: S. aureus Newman; assay: Bliss interaction score (quartile over a dose matrix) (fitness difference); higher = more antagonism (negative = synergy)
Listed here are compounds together with their documented Bliss interaction score.
Reply with just the number.

compound="CC1(C)S[C@@H]2[C@H](NC(=O)[C@H](N)c3ccc(O)cc3)C(=O)N2[C@H]1C(=O)O [Amoxicillin] + CO[C@@H]1[C@@H](OC(N)=O)[C@@H](O)[C@H](Oc2ccc3c(O)c(NC(=O)c4ccc(O)c(CC=C(C)C)c4)c(=O)oc3c2C)OC1(C)C [Novobiocin]" subject_of_test="S. aureus Newman" readout_type="Bliss interaction score" numeric_value=-0.0655
compound="CC1(C)S[C@@H]2[C@H](NC(=O)[C@H](N)c3ccc(O)cc3)C(=O)N2[C@H]1C(=O)O [Amoxicillin] + O=C(O)[C@H]1/C(=C/CO)O[C@@H]2CC(=O)N21 [Clavulanic]" subject_of_test="S. aureus Newman" readout_type="Bliss interaction score" numeric_value=-0.117
compound="CN(C)C(=O)C(CCN1CCC(O)(c2ccc(Cl)cc2)CC1)(c1ccccc1)c1ccccc1 [Loperamide] + CC[C@H]1OC(=O)[C@H](C)C(=O)[C@H](C)[C@@H](O[C@@H]2O[C@H](C)C[C@H](N(C)C)[C@H]2O)[C@](C)(OC)C[C@@H](C)C(=O)[C@H](C)[C@H]2N(CCCCn3cnc(-c4cccnc4)c3)C(=O)O[C@]12C [Telithromycin]" subject_of_test="S. aureus Newman" readout_type="Bliss interaction score" numeric_value=-0.024

Ask: Answer with the recorded Bliss interaction score for the compound listed here: CO/N=C(\C(=O)N[C@@H]1C(=O)N2C(C(=O)[O-])=C(C[N+]3(C)CCCC3)CS[C@H]12)c1csc(N)n1 [Cefepime] + Cc1ncc([N+](=O)[O-])n1CCO [Metronidazole]
Result: -0.0502

Ask: Answer with the recorded Bliss interaction score for the compound listed here: Cn1nnc(-c2ccc(-c3ccc(N4C[C@H](CO)OC4=O)cc3F)cn2)n1 [Tedizolid] + CC1=C\[C@@H](O)CC(=O)Cc2nc(co2)C(=O)N2CCC=C2C(=O)O[C@H](C(C)C)[C@H](C)/C=C/C(=O)NC\C=C\1 [Virginiamycin M1]
Result: 0.0611

Ask: Answer with the recorded Bliss interaction score for the compound listed here: C[C@H]1COc2c(N3CCN(C)CC3)c(F)cc3c(=O)c(C(=O)O)cn1c23 [Levofloxacin] + Clc1ccc(COC(Cn2ccnc2)c2ccc(Cl)cc2Cl)c(Cl)c1 [Miconazole]
Result: 0.0464
